Molecular target: T1, human Trop-2-His protein (human, UniProt P09758 27-274)
T1 construct: extracellular domain; Assay paragraphs say only 'Trop-2-His'; also called hTrop-2; Kactus Cat #TRP-HM121; not shown: His tag
T1 sequence (looked up): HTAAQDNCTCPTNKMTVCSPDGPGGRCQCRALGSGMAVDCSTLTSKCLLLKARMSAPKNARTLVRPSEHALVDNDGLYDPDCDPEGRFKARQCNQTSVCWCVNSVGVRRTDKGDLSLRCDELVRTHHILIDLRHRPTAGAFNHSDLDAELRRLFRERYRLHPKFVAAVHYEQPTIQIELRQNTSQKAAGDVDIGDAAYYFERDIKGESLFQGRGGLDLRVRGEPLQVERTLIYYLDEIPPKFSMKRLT
Assay: BLI (Gator Plus), purified Ab on HFC probe

- Binder: "65D5 (antibody, V domains shown, Rabbit-derived clone; LEM construct: VH + rabbit IgG CH1 + human IgG1 CH2-CH3) VH: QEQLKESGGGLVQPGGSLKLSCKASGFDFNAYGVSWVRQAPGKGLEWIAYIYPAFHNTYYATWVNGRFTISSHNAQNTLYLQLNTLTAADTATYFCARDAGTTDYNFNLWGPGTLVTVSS VL: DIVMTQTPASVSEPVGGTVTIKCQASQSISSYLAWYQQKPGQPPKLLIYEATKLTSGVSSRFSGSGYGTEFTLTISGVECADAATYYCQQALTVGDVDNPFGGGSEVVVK"
  kon, M⁻¹ s⁻¹: 819000
- Binder: "72F12 (antibody, V domains shown, Rabbit-derived clone; LEM construct: VH + rabbit IgG CH1 + human IgG1 CH2-CH3) VH: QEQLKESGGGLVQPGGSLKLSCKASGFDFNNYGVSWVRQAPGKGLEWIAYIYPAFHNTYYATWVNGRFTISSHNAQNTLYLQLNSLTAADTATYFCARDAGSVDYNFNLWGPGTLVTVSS VL: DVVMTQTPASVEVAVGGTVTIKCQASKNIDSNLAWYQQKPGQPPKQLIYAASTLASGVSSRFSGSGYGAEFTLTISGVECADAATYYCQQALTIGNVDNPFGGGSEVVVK"
  kon, M⁻¹ s⁻¹: 865000
- Binder: "74F11/15F5 (antibody, human IgG1, V domains shown, LEM construct: VH + rabbit IgG CH1 + human IgG1 CH2-CH3) VH: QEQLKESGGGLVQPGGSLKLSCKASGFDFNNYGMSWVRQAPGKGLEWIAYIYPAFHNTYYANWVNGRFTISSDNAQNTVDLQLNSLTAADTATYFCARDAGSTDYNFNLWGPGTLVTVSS VL: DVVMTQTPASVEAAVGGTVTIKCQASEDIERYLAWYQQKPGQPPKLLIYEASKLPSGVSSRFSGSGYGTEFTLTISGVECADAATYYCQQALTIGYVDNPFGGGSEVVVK"
  kon, M⁻¹ s⁻¹: 707000

Ref: patent US20250206841A1
